- ASSAY_PROTOCOL: Hematology assays after subcutaneous administration in CD-1 mice (Example 6)
- Type: in vivo
- Parameters: unit not given here
- ASSAY_CONTEXT: 50 mg/kg subcutaneous twice weekly for 7 weeks
Strand notation (5' to 3'): a small letter for the sugar, then the base; units joined by * are phosphorothioate-linked, units joined directly phosphodiester-linked; [ ] holds rarer units or linkages, { } end groups; capitals alone tell only the bases. k = constrained ethyl (cEt); [5mC] = 5-methylcytosine; d = 2'-deoxy (DNA)
Under this convention, Y denotes Monocytes strictly below 5 and N denotes Monocytes at or above 5.

1. 829994 (GGAGGCAGGGCCGCGA; 3-10-3 cEt gapmer, further chemistry not given here) [compound 829994]    Y
2. 830027 (antisense kA*kA*k[5mC]*d[5mC]*dA*dT*dT*dT*dA*dT*d[5mC]*dT*dG*kG*kT*kG) [compound 830027]    N
3. 798781 (CGTAAGATTCACAGCA; 3-10-3 cEt gapmer, further chemistry not given here) [compound 798781]    N
4. 830025 (antisense TTTGTAAATCGAAAGC; 3-10-3 cEt gapmer, further chemistry not given here) [compound 830025]    Y

====

- Tested on: human SMAD7 mRNA
- ASSAY_PROTOCOL: Dose-dependent inhibition of human SMAD7 mRNA expression in Hep3B cells (Example 3, Study 1 and 2)
- Assay type: cell-based
- ASSAY_CONTEXT: 1250.0 nM, electroporation, approximately 16 hours, Study 1
Strand notation (5' to 3'): a small letter for the sugar, then the base; units joined by * are phosphorothioate-linked, units joined directly phosphodiester-linked; [ ] holds rarer units or linkages, { } end groups; capitals alone tell only the bases. e = 2'-O-(2-methoxyethyl) (MOE); [5mC] = 5-methylcytosine; d = 2'-deoxy (DNA)
OUTCOME_MEASURE: % inhibition of SMAD7 mRNA expression

1) 771479 (antisense eG*eG*eG*eA*eA*d[5mC]*dA*d[5mC]*d[5mC]*dT*dT*dG*dT*dG*dT*eA*e[5mC]*e[5mC]*eA*eA) [compound 771479]    8%
2) 483663 (antisense e[5mC]*eA*eG*e[5mC]*e[5mC]*dT*d[5mC]*dT*dT*dG*dA*d[5mC]*dT*dT*d[5mC]*e[5mC]*eG*eA*eG*eG) [compound 483663]    0%
3) 771902 (antisense eG*eG*eG*eT*eT*d[5mC]*dT*d[5mC]*d[5mC]*dA*dG*d[5mC]*d[5mC]*dG*d[5mC]*eT*e[5mC]*eA*eG*eA) [compound 771902]    17%

====

- Test system: human SMAD7 mRNA
- ASSAY_PROTOCOL: Dose-dependent inhibition of human SMAD7 mRNA expression in Hep3B cells (Example 3, Study 1 and 2)
- Type: cell-based
- ASSAY_CONTEXT: electroporation, Study 2 (740-20000 nM)
Strand notation (5' to 3'): a small letter for the sugar, then the base; units joined by * are phosphorothioate-linked, units joined directly phosphodiester-linked; [ ] holds rarer units or linkages, { } end groups; capitals alone tell only the bases. k = constrained ethyl (cEt); [5mC] = 5-methylcytosine; d = 2'-deoxy (DNA)
Under this convention, 1 denotes IC50 strictly below 4 µM and 0 denotes IC50 at or above 4 µM.

1) 830131 (antisense k[5mC]*k[5mC]*k[5mC]*dA*d[5mC]*d[5mC]*dT*d[5mC]*d[5mC]*dG*dA*dG*dG*k[5mC]*kA*k[5mC]) [compound 830131]    0
2) 772568 (antisense kA*kG*k[5mC]*d[5mC]*dT*d[5mC]*dT*dT*dG*dA*d[5mC]*dT*dT*k[5mC]*k[5mC]*kG) [compound 772568]    1
3) 799583 (kA*kA*kG*dA*d[5mC]*dA*dA*dA*d[5mC]*d[5mC]*dT*dT*d[5mC]*k[5mC]*kG*kA; antisense) [compound 799583]    1
4) 830128 (antisense kA*k[5mC]*k[5mC]*dT*d[5mC]*d[5mC]*dG*dA*dG*dG*d[5mC]*dA*d[5mC]*k[5mC]*kA*k[5mC]) [compound 830128]    1
5) 772553 (antisense kT*k[5mC]*kT*dT*dG*dA*dG*d[5mC]*dA*d[5mC]*d[5mC]*dG*dA*kG*kT*kG) [compound 772553]    1
6) 799743 (antisense k[5mC]*kT*kG*dG*dA*dG*dT*dT*dA*dT*dT*d[5mC]*dT*k[5mC]*kA*kA) [compound 799743]    0
7) 799605 (k[5mC]*k[5mC]*kA*dA*dT*dA*dA*dA*dG*dT*dT*d[5mC]*d[5mC]*k[5mC]*kT*kT; antisense) [compound 799605]    0
8) 829762 (antisense k[5mC]*k[5mC]*kT*dT*d[5mC]*dA*dG*dA*dT*d[5mC]*d[5mC]*dG*d[5mC]*k[5mC]*kT*k[5mC]) [compound 829762]    0
9) 829980 (kT*kT*kG*dA*dT*dA*dT*dT*dT*dA*dG*d[5mC]*dT*kG*kT*k[5mC]; antisense) [compound 829980]    1
10) 799543 (kT*k[5mC]*kA*dA*dA*dT*dG*d[5mC]*dA*dT*dG*dA*dG*kT*kT*kA; antisense) [compound 799543]    0

====

- Test system: human SMAD7 mRNA
- ASSAY_PROTOCOL: Antisense inhibition of human SMAD7 mRNA expression in Hep3B cells by 5-10-5 MOE gapmers, single concentration, electroporation, RT-PCR (Example 1, Study 1 and 2)
- Format: cell-based
- ASSAY_CONTEXT: Study 2, electroporation with 15,000 nM antisense oligonucleotide, 5-10-5 MOE gapmers targeting SEQ ID NO: 1 and 2
Strand notation (5' to 3'): a small letter for the sugar, then the base; units joined by * are phosphorothioate-linked, units joined directly phosphodiester-linked; [ ] holds rarer units or linkages, { } end groups; capitals alone tell only the bases. e = 2'-O-(2-methoxyethyl) (MOE); [5mC] = 5-methylcytosine; d = 2'-deoxy (DNA)
OUTCOME_MEASURE: % Inhibition (%)

1) 771421 (eG*e[5mC]*e[5mC]*e[5mC]*eT*dG*d[5mC]*d[5mC]*d[5mC]*dG*dG*dG*d[5mC]*d[5mC]*dG*e[5mC]*e[5mC]*eG*e[5mC]*e[5mC]; antisense) [compound 771421]    0
2) 771819 (antisense eA*eA*eT*eA*eG*dT*dT*dT*dT*d[5mC]*dT*d[5mC]*dT*d[5mC]*dA*eA*eA*eT*eG*eT) [compound 771819]    20
3) 771803 (antisense eA*eT*eG*eG*eA*dT*dA*d[5mC]*dT*dG*dA*d[5mC]*dT*d[5mC]*dA*eA*eG*eG*eA*e[5mC]) [compound 771803]    39
4) 771831 (antisense e[5mC]*eG*eA*eT*e[5mC]*dA*dT*dT*dT*dT*d[5mC]*dT*dA*d[5mC]*dA*e[5mC]*e[5mC]*eT*eT*eT) [compound 771831]    66
5) 771716 (antisense eT*e[5mC]*eG*eA*eA*dT*d[5mC]*dA*d[5mC]*d[5mC]*d[5mC]*dT*dT*dT*d[5mC]*e[5mC]*eA*eT*eT*eA) [compound 771716]    24
6) 771437 (eG*e[5mC]*e[5mC]*eT*eG*dG*dA*dG*d[5mC]*dA*dG*d[5mC]*dA*dG*d[5mC]*eT*e[5mC]*e[5mC]*eA*eG; antisense) [compound 771437]    0
7) 771755 (antisense eA*eA*eA*e[5mC]*eA*dT*dT*dT*dG*dG*d[5mC]*dA*d[5mC]*d[5mC]*d[5mC]*eA*eA*e[5mC]*eA*e[5mC]) [compound 771755]    35
8) 771694 (antisense e[5mC]*eT*e[5mC]*e[5mC]*e[5mC]*dA*dG*dG*dA*dG*dG*dG*dT*dA*dT*eG*e[5mC]*eA*e[5mC]*eA) [compound 771694]    0
9) 771383 (antisense eT*eA*e[5mC]*eA*e[5mC]*dA*dA*dA*dT*dA*dA*dA*dA*dA*d[5mC]*eA*e[5mC]*e[5mC]*eA*eA) [compound 771383]    0
10) 771855 (antisense eT*e[5mC]*e[5mC]*e[5mC]*eG*dA*d[5mC]*dT*dT*dT*dG*d[5mC]*dA*dA*dG*eA*eT*eG*eA*eA) [compound 771855]    38
11) 771772 (antisense eT*e[5mC]*e[5mC]*eT*e[5mC]*dA*dG*dG*dA*dA*d[5mC]*dA*dA*d[5mC]*dA*eA*eT*eG*e[5mC]*eT) [compound 771772]    27
12) 771911 (antisense eA*eT*eG*eG*eT*d[5mC]*d[5mC]*dA*dG*d[5mC]*dA*dG*dA*dG*d[5mC]*eA*eG*eA*eA*eG) [compound 771911]    20
13) 771843 (antisense e[5mC]*eG*e[5mC]*e[5mC]*eG*dG*d[5mC]*d[5mC]*d[5mC]*dA*d[5mC]*d[5mC]*dA*dA*d[5mC]*e[5mC]*eT*e[5mC]*eT*eG) [compound 771843]    17
14) 771847 (antisense e[5mC]*eA*eT*e[5mC]*eA*d[5mC]*d[5mC]*dT*dT*d[5mC]*dG*dG*dA*d[5mC]*dA*eA*eG*e[5mC]*e[5mC]*eA) [compound 771847]    53
15) 771868 (antisense eG*eG*eA*eG*eG*d[5mC]*dA*dA*dA*dT*dT*d[5mC]*dA*dT*dA*eG*eA*e[5mC]*eA*eG) [compound 771868]    16
16) 771711 (antisense e[5mC]*eG*e[5mC]*eA*e[5mC]*dT*dT*d[5mC]*dA*d[5mC]*dA*dG*dT*dT*d[5mC]*eA*e[5mC]*eA*eG*eG) [compound 771711]    57
17) 771910 (antisense eA*eG*eG*e[5mC]*eA*d[5mC]*dG*dG*d[5mC]*d[5mC]*dG*d[5mC]*d[5mC]*dT*d[5mC]*e[5mC]*eT*eG*e[5mC]*eA) [compound 771910]    4
18) 771878 (antisense e[5mC]*eA*eG*eT*eT*dT*d[5mC]*dT*dA*dG*dA*dG*dG*dG*dT*eA*eG*eG*eA*eA) [compound 771878]    22
19) 771429 (eA*e[5mC]*e[5mC]*eT*eT*dT*dG*dG*d[5mC]*dA*d[5mC]*d[5mC]*dT*d[5mC]*dG*e[5mC]*eA*e[5mC]*e[5mC]*eG; antisense) [compound 771429]    11
20) 771424 (e[5mC]*e[5mC]*e[5mC]*eA*eG*dG*d[5mC]*dA*dG*d[5mC]*dA*dT*d[5mC]*d[5mC]*dA*eG*e[5mC]*e[5mC]*e[5mC]*eT; antisense) [compound 771424]    36
21) 771743 (antisense eG*e[5mC]*e[5mC]*eA*eT*dA*d[5mC]*d[5mC]*dT*d[5mC]*d[5mC]*dA*dT*d[5mC]*dT*e[5mC]*eT*e[5mC]*eA*e[5mC]) [compound 771743]    0
